# assay-text: chemical genetic growth profiling, strain panel (AID 1159580);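 further: tested at 20 µM; growth read once vehicle control cultures reached saturation at 30 °C; 1 = growth at the plate median or of vehicle wells; lower values mean less growth of the strain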
# particulars: S. cerevisiae deletion strains, growth OD, locus YMR129W, active compounds read low
Out of some 5,500 compounds screened, about 2,000 (36%) were called active. Roughly 18% stayed inconclusive and do not appear here. The list shows a part of the results.
What normalized growth was measured for each of the following?
Answers are plain numbers.

The examples below pair each entry with its known result.
[
  {
    "molecule": "O=C(NC(=O)c1c(F)cccc1F)Nc1ccc(Cl)cc1",
    "reported-metric": "normalized growth",
    "number": 1.02
  },
  {
    "molecule": "C[C@H]1[C@H]2CCC3C4CC=C5C[C@@H](N(C)C)CC[C@]5(C)C4CC[C@@]32CN1C (stereo partly specified)",
    "reported-metric": "normalized growth",
    "number": 0.997
  },
  {
    "molecule": "CC(C)=CCC[C@](C)(O)C1CC=C(C)CC1 (stereo partly specified)",
    "reported-metric": "normalized growth",
    "number": 0.992
  },
  {
    "molecule": "Nc1ncn([C@@H]2O[C@H](CO)[C@@H](O)[C@H]2O)c(=O)n1",
    "reported-metric": "normalized growth",
    "number": 0.996
  },
  {
    "molecule": "COc1cc2c(c(OC)c1OC)-c1ccc(OC)c(=O)cc1[C@@H](NC(C)=O)CC2",
    "reported-metric": "normalized growth",
    "number": 1.02
  },
  {
    "molecule": "Nc1ccc(S(=O)(=O)Nc2ccccn2)cc1",
    "reported-metric": "normalized growth",
    "number": 1.01
  }
]

Your task in this section: give normalized growth for each listed record.
1. CC(C)=CCC/C(C)=C/CC/C(C)=C/CC/C(C)=C/CC/C(C)=C/CC/C(C)=C/CC/C(C)=C/CC/C(C)=C/CC/C(C)=C/CO
2. CC(=O)O[C@H]1C[C@@H](OC(C)=O)C(C)(C)C2C[C@@H](OC(C)=O)[C@@]3(C)C4=CC(=O)O[C@@H](c5ccoc5)[C@]4(C)CCC3[C@]21C (stereo partly specified)
3. Cc1ccc2c(Cl)cc(Cl)c(O)c2n1
4. C=CC(C1=CC(=O)C(OC)=CC1=O)c1ccc(OC)cc1 (stereo unspecified)

0.99
1.01
1.01
1

Would you mind listing normalized growth for each of the following molecules?
1. O=C(O)c1ccccc1Nc1ccccc1
2. COC(=O)C[C@H]1C(C)(C)C(=O)[C@@H]2CC3=C4CC(=O)O[C@@H](c5ccoc5)[C@]4(C)CCC3[C@@]1(C)C2=O (stereo partly specified)
3. NC(=NCCC[C@H](N)C(=O)O)NC(CCC(=O)O)C(=O)O (stereo partly specified)
4. O=C(OC1Cc2c(O)cc(O)cc2OC1c1cc(O)c(O)c(O)c1-c1c(C2Oc3cc(O)cc(O)c3CC2OC(=O)c2cc(O)c(O)c(O)c2)cc(O)c(O)c1O)c1cc(O)c(O)c(O)c1 (stereo unspecified)
5. Cc1ccsc1/C=C/C1=NCCCN1C
6. C=C[C@@H](C1=CC(=O)C(OC)=C(OC)C1=O)c1ccccc1

1. 0.889
2. 0.998
3. 0.997
4. 1.02
5. 0.99
6. 0.659

Can you give me normalized growth for all of these, one by one?
1. CCN(CC)CCNC(=O)c1cc(S(C)(=O)=O)ccc1OC
2. CC(C)NCC(O)c1ccc(O)c(O)c1 (stereo unspecified)
3. NCC(O)c1ccc(O)cc1 (stereo unspecified)
4. CCCCC(CC)CN1CN(CC(CC)CCCC)CC(C)(N)C1 (stereo unspecified)
5. C=CC(C1=CC(=O)C=CC1=O)c1ccccc1 (stereo unspecified)

1: 0.974; 2: 0.991; 3: 1.01; 4: 0.0564; 5: 1

Cited source: PubChem BioAssay AID1159580
